# System: JCK
# Assay procedure: qHTS profiling for inhibitors of Plasmodium falciparum proliferation (AID 504749); further: nearly all actives have a fitted effect of over 60% in size
# Experimental setup: P. falciparum in erythrocytes, SYBR Green DNA, 72 h; series mostly up to 28.7 µM
Results filed as inconclusive are left out. Calls of active or inactive are those of the source. The call rests on the fitted dose curve; in most records, active means well fitted inhibition curve with a large enough effect; inconclusive means small, poorly fitted or top-dose-only effect; inactive means flat fitted curve, though single readings scatter.
Pick from true (1) (active), false (0) (inactive) when you respond.

These solved cases illustrate the format of a correct answer.
| Compound | Category label |
| --- | --- |
| Cc1ccc(-c2cc(C(F)(F)F)nn2-c2ccc(S(N)(=O)=O)cc2)cc1 | false (0) |
| Cc1cc(C(C)(C)C)c(O)c(C)c1CC1=NCCN1 | false (0) |
| O=C1N(c2ccccc2)c2ccccc2C1(Cc1ccncc1)Cc1ccncc1 | false (0) |

(Q) Hi team, can someone confirm the assay call for "CCOC(=O)C(C)(C)Oc1ccc(Cl)cc1" ?
(A) false (0)

(Q) Tell me the recorded outcome of this test for "CC[N+](CC)(CC)CCOc1cccc(OCC[N+](CC)(CC)CC)c1OCC[N+](CC)(CC)CC" .
(A) false (0)

====

# Tested on: TAB113
# Assay procedure: qHTS profiling for inhibitors of Plasmodium falciparum proliferation (AID 504749); further: nearly all actives have a fitted effect of over 60% in size
# Experimental setup: P. falciparum in erythrocytes, SYBR Green DNA, 72 h; series mostly up to 28.7 µM
Records with an inconclusive call do not appear. Calls of active or inactive are those of the source. Calls come from the whole dose curve; as a rule, active = well fitted inhibition curve with a large enough effect; inconclusive = small, poorly fitted or top-dose-only effect; inactive = flat fitted curve, though single readings scatter.
Parameter call: string, one of active, inactive

(Q) # lookup: test call for "COc1ccc2[nH]cc(CCNC(C)=O)c2c1"
(A) inactive

(Q) Hello, I am checking results. What call was entered for "CN(C)c1nc(N(C)C)nc(N(C)C)n1" ?
(A) inactive

(Q) Could you please tell me the result logged for "O=C(Nc1ccc([N+](=O)[O-])cc1Cl)c1cc(Cl)ccc1O" in this assay?
(A) active

(Q) Call for entry "NS(=O)(=O)c1cc2c(cc1Cl)NCNS2(=O)=O" :
(A) inactive

(Q) Kindly provide the recorded test outcome for the following compound: CC(C)(Oc1ccc(C2CC2(Cl)Cl)cc1)C(=O)O (configuration not stated)
(A) inactive

====

# Assay procedure: qHTS of pediatric cancer cell lines to identify multiple opportunities for drug repurposing: Confirmatory screen for Rh41 cells (AID 1347123);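 further: 48 h compound exposure; nearly all actives have a fitted effect of over 60% in size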
# Experimental setup: Rh41 rhabdomyosarcoma cells, viability/cytotoxicity qHTS; series mostly up to 45.9 µM
Inconclusive results are not listed. Calls of active or inactive are those of the source. Calls follow the shape of the dose curve; as a rule, active = well fitted cell-killing curve with a large enough effect; inconclusive = small, poorly fitted or top-dose-only effect; inactive = no such curve, though single readings can be large or run the other way.
Please reply with one of these outcomes: active, inactive

| Compound | Category label |
| --- | --- |
| CC(CCc1ccc(O)cc1)NCCc1ccc(O)c(O)c1 (centres undefined) | inactive |
| CC#C[C@]1(O)CC[C@H]2[C@@H]3CCC4=CC(=O)CCC4=C3[C@@H](c3ccc(N(C)C)cc3)C[C@@]21C | active |
| CCC1(c2ccccc2)C(=O)NCNC1=O | inactive |

(Q) Please share the test call associated with "CN(C)CCCN1c2ccccc2CCc2ccc(Cl)cc21" .
(A) active

====

# Assay procedure: NFAT Signaling Pathway (AID 444);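 further: carbachol stimulus at about its EC50 of 1 µM final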
# Experimental setup: Jurkat NFAT-bla M1, carbachol, beta-lactamase ratio, 5 h; at 17.2 µM (top of the series)
Records with an inconclusive call do not appear. Calls of active or inactive are those of the source. Calls come from the whole dose curve; as a rule, active = well fitted curve in either direction with a large enough effect (not every such curve was filed as active); inconclusive = small, poorly fitted or top-dose-only effect, or another doubt; inactive = flat fitted curve, though single readings scatter.
Lab note: assign the record to one of 1.0 (active), 0.0 (inactive)

(Q) Called result for "CN(C)C(=N)N=C(N)N"
(A) 0.0

(Q) Dear colleague, could you share the recorded outcome for "CN1CCN(CCCN2c3ccccc3Sc3ccc(Cl)cc32)CC1" when you have a moment?
(A) 0.0

(Q) Please indicate how the test categorized COc1ccccc1N1CCN(CC(O)COc2cccc3ccccc23)CC1 (configuration not stated) .
(A) 0.0

(Q) Hello, I am checking results. What call was entered for "COc1ccc2[nH]cc(CCNC(C)=O)c2c1" ?
(A) 0.0

(Q) Status in this test for "Nc1nnc(-c2cccc(Cl)c2Cl)c(N)n1" ?
(A) 0.0

(Q) I'd appreciate the recorded outcome for "COC(=O)Nc1nc2ccc(C(=O)c3cccs3)cc2[nH]1" from this test.
(A) 1.0

(Q) What outcome does the record of this test show for NC(CO)C(=O)NNCc1ccc(O)c(O)c1O (configuration not stated) ?
(A) 0.0

(Q) So what was the verdict on "CC(C)C(=O)Nc1ccc([N+](=O)[O-])c(C(F)(F)F)c1" in this test?
(A) 0.0

(Q) I'd appreciate the recorded outcome for "Cc1cn([C@H]2C[C@H](N=[N+]=[N-])[C@@H](CO)O2)c(=O)[nH]c1=O" from this test.
(A) 0.0
